Hey, just so you know, these numbers are from patent US20260355189A1.

Listed compounds paired with reported inhibition at 10 µM
test system: human neutrophils (Gelatinase granule cargo MMP9); assay: Flow cytometry of gelatinase granule exocytosis (MMP9) in human neutrophils; assay type: cell-based; conditions: Homo sapiens, Neutrophil, 1 hour, GM-CSF + fMLP, N=12 donors, FIG. 6, read-out: % Inhibition of MMP9 up-regulation
Please give a number only; it is taken to be in %.

# annotated cases, reported inhibition at 10 µM shown
INSERT INTO measurements (compound, assayedsystem, measurementname, measuredresult) VALUES
  ('CC(C)(C)C(=O)C(=Cc1cccc(O)c1)n1cncn1 [151 (C2)]', 'human neutrophils (Gelatinase granule cargo MMP9)', 'inhibition at 10 µM', 26.5),
  ('CCN(CC)CCNC(=O)/C(=C/c1cccc([N+](=O)[O-])c1)n1cncn1 [154 (C6)]', 'human neutrophils (Gelatinase granule cargo MMP9)', 'inhibition at 10 µM', 54.4),
  ('CN(C)c1cccc(/C=C(/C(=O)C(C)(C)C)n2cncn2)c1 [150 (C1)]', 'human neutrophils (Gelatinase granule cargo MMP9)', 'inhibition at 10 µM', 55.3);

Continue with the compound presented below.
Tell me inhibition at 10 µM reported for O=C(Nc1ccccc1)/C(=C/c1cccc([N+](=O)[O-])c1)n1cncn1 [152 (C4)]
16.4

###

system: mouse neutrophils; assay: Isoluminol-dependent chemiluminescence assay of MPO secretion in purified mouse neutrophils; format: cell-based; details: Mus musculus, Neutrophil; dose-response analysis, FIG. 3C
measurementName: pIC50
Scale: negative log10 of molar concentration, which is what pIC50 denotes.

Recall the reported pIC50 of CN(C)c1cccc(/C=C(/C(=O)C(C)(C)C)n2cncn2)c1 [150 (C1)] when tested on mouse neutrophils.
6.07

###

test system: mouse neutrophils; experiment: Isoluminol-dependent chemiluminescence assay of MPO secretion in purified mouse neutrophils; type: cell-based; conditions: Mus musculus, Neutrophil; 10 μM inhibitor, PMA stimulated, FIG. 3B
measurementName: inhibition at 10 µM (%)
Kindly answer with a numeric value in %, unit omitted.

INSERT INTO measurements (linenotation, assayedsystem, unittag, measuredresult) VALUES
  ('O=C(Nc1ccccc1)/C(=C/c1cccc([N+](=O)[O-])c1)n1cncn1', 'mouse neutrophils', '%', 70.9);

Write down the reported inhibition at 10 µM (system: mouse neutrophils) of `CC(C)(C)C(=O)C(=Cc1cccc(O)c1)n1cncn1`
59.9

Enter recorded inhibition at 10 µM with mouse neutrophils for `CN(C)c1cccc(/C=C(/C(=O)C(C)(C)C)n2cncn2)c1` here.
76.7

Provide inhibition at 10 µM, tested on mouse neutrophils, for `CCN(CC)CCNC(=O)/C(=C/c1cccc([N+](=O)[O-])c1)n1cncn1` .
62.4
